# System: Glio38
# measurement_notes: MTS cell viability assay, GSC line Glio38
# Assay type: cell-based, human
# experimental_setup: Homo sapiens, 72 h, MTS, ±SEM, read-out: Glio38 IC50
Listed molecules paired with reported IC50
Report the figure in µM without appending any unit label.

The reported IC50 of the molecule "COc1cc(/C=C/C(=O)c2ccc(O)cc2)cc(OC)c1" was 6.4

Would you kindly look at the next entry?
The reported IC50 of the molecule "Nc1ccc(C(=O)/C=C/c2cccc(Br)c2)cc1" was 5.9

###

Listed compounds paired with reported IC50
# Test system: Glio38
# measurement_notes: MTS cell viability assay, GSC line Glio38
# Assay type: cell-based, human
# experimental_setup: Homo sapiens, 72 h, MTS, ±SEM, read-out: Glio38 IC50
Report the figure in µM without appending any unit label.

Recorded IC50, per entry:
The reported IC50 of the compound "COc1cc(/C=C/C(=O)c2cccc(N)c2)cc(OC)c1OC" was 5

The reported IC50 of the compound "COc1ccc(OC)c(/C=C/C(=O)c2ccc(N)cc2)c1" was 10.4

The reported IC50 of the compound "Nc1ccc(C(=O)/C=C/c2ccc(Cl)cc2)cc1" was 7.9

The reported IC50 of the compound "COc1cc(/C=C/C(=O)c2ccc(OC(C)=O)cc2)cc(OC)c1OC" was 6.9

The reported IC50 of the compound "Nc1ccc(C(=O)/C=C/c2ccccn2)cc1" was 6.4

Others:
The reported IC50 of the compound "Nc1ccc(C(=O)/C=C/c2cccc(Cl)c2)cc1" was 6.7

The reported IC50 of the compound "COc1ccc(OC)c(/C=C/C(=O)c2ccc(NC(C)=O)cc2)c1" was 7.9

The reported IC50 of the compound "COc1cc(/C=C/C(=O)c2ccc(NC(C)=O)cc2)cc(OC)c1" was 5.4

The reported IC50 of the compound "COC(=O)COc1ccc(C(=O)/C=C/c2cc(OC)c(OC)c(OC)c2)cc1" was 18.4

The reported IC50 of the compound "COc1cccc(/C=C/C(=O)c2ccc(O)cc2)c1OC" was 9.1

The reported IC50 of the compound "Nc1ccc(C(=O)/C=C/c2cccc(F)c2)cc1" was 8.8

###

# Tested on: Glio38
# measurement_notes: MTS cell viability assay, GSC line Glio38
# Assay type: cell-based, human
# experimental_setup: 72 h, MTS; ±SEM; read-out: Glio38 IC50
measured_metric: pIC50
In textbook form, pIC50 equals minus log to base ten of the concentration in mol/L.

Tested system Glio38; pIC50 recorded for "Nc1ccc(C(=O)/C=C/c2ccccn2)cc1" was 5.18

###

# Tested on: Glio38
# measurement_notes: MTS cell viability assay, GSC line Glio38
# Type: cell-based, human
# experimental_setup: Homo sapiens, 72 h, MTS, ±SEM, read-out: Glio38 IC50
pIC50: −log10 of the molar value.
measured_metric: pIC50

Recorded pIC50, per entry:
The reported pIC50 of the compound "CCOc1cc(C=CC(=O)c2ccc(N)cc2)ccc1O" was < 5.00

The reported pIC50 of the compound "COc1ccc(/C=C/C(=O)c2ccc(N)cc2)cc1OC" was < 5.00

Would you kindly look at the next entry?
The reported pIC50 of the compound "COc1cc(/C=C/C(=O)c2ccc(N)cc2)ccc1O" was < 5.00
